target_or_test_system: HIV Env of isolate CNE17 (clade BC) (HIV)
protocol_notes: cell-based or functional assay
observable: IC50 (µg/ml) with constrains

binder: PGDM1400 (antibody, V domains shown) VH: QVHLTQSGPEVRKPGTSVKVSCKAPGNTLKTYDLHWVRSVPGQGLQWMGWISHEGDKKVIVERFKAKVTIDWDRSTNTAYLQLSGLTSGDTAVYYCAKGSKHRLRDYALYDDDGALNWAVDVDYLSNLEFWGQGTAVTVSS VL: DFVLTQSPHSLSVTPGESASISCKSSHSLIHGDRNNYLAWYVQKPGRSPQLLIYLASSRASGVPDRFSGSGSDKDFTLKISRVETEDVGTYYCMQGRESPWTFGQGTKVDIK
observable: IC50 (µg/ml) with constrains
value_measured: 0.005 µg/mL
//
binder: ePGDM5 (antibody, V domains shown) VH: QAQLVQSGPEVRKPGTSVKVSCKNPGNTLTTYDLHWVRQVPGQGLQWMGWISHEGDKKVIVERFKAKVTIDWDRSTNTAYLQLSGLTSEDTAVYYCAKGSKHRLRDYALYDEDGALNWAVDVDYLANLEFWGQGTAVTVSS VL: DFVLTQSPLSLSVTPGESASISCKSDHSLQHGDRNNYLAWYVQKPGRSPQLLIDLASERASGVPDRFSGSGSRKDFTLKIDRVEAEDVGTYYCMQGRESPWTFGQGTKVDIK
observable: IC50 (µg/ml) with constrains
value_measured: 0.007 µg/mL
//
binder: ePGDM13 (antibody, V domains shown) VH: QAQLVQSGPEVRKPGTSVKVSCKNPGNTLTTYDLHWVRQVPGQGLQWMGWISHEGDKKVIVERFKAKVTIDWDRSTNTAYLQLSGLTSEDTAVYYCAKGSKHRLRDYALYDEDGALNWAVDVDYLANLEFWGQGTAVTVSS VL: DIVLTQSPLSLSVTPGESASISCKSSHSLQHGDRNNYLAWYVQKPGRSPQLLLDLASERASGVPDRFSGSGSEKDFTLKISRVETEDVGTYYCMQGRESPWTFGQGTKVDIK
observable: IC50 (µg/ml) with constrains
value_measured: 0.008 µg/mL
//
binder: ePGDM9 (antibody, V domains shown) VH: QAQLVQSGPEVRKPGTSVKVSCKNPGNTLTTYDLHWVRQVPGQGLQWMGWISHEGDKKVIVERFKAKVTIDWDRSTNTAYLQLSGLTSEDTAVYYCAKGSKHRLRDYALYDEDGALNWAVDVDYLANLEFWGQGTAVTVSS VL: DIVLTQSPLSLSVTPGESASISCKSSQSLIHGDRNNYLAWYVQKPGRSPQLLIDLASERASGVPDRFSGSGSRKDFTLKISRVETEDVGTYYCMQGRESPWTFGQGTKVDIK
observable: IC50 (µg/ml) with constrains
value_measured: 0.003 µg/mL
